B1: PDS5B (parent)
chain: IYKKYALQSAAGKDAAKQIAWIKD

variants of: B1; assay: protein stability index of a GFP-peptide fusion (GPS, HEK-293T) (PSI 1-6); higher = more stable; details: c terminus: a fixed tail appended;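 further: lentivirally expressed fusions sorted by FACS into six bins by GFP to DsRed ratio, PSI derived from sequencing read proportions per bin multiplied by bin number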
# label = true if protein stability index >= 2 else false

Query block: Given the entry IYKKYALQSAAGKDAAKQIAWIKS , answer whether its protein stability index meets or surpasses 2.
Result block: true

Query block: protein stability index >= 2 for IYKKYALQSAAGKDALKQIAWIKD ?
Result block: true

Query block: Could you tell me if the measured protein stability index of IYKQYALQSAAGKDAAKQIAWIKD reaches 2 or more?
Result block: true

Query block: State whether the measured protein stability index reaches 2, counting equality as reaching it, for IYKKYALQSAAGKDAAKQIAWLKD
Result block: true

Query block: hey, is protein stability index for this one >= 2? IYKKYAWQSAAGKDAAKQIAWIKD
Result block: false

Query block: Decide: protein stability index of IYKKYALQSAAGKDAASQIAWIKD >= 2?
Result block: true

Query block: State whether the measured protein stability index reaches 2, counting equality as reaching it, for IYKKYALQSAAGKDAAKQIAWEKD
Result block: true
